Exercise: state measured IC50 for each of the compounds provided.
# test_system: UniProt:P00918
# protocol_details: Human carbonic anhydrase-II inhibition assay (absorbance, 4-nitrophenyl acetate substrate)
# Assay type: biochemical
# cond: hCA II 8 nM, 4-NPA 2.5 mM, absorbance 340 nm, room temperature 1 hour; read-out: CA-II IC50
One number for each entry, in nM.

NS(=O)(=O)c1ccc(C(=O)N2CC3=C(CN(C(=O)/C=C/c4ccc(OC(F)(F)F)cc4)C3)C2)c(F)c1 = 9
Cc1nnn(Cc2cc(C(F)(F)F)ccc2CCC(=O)N2CC3=C(C2)CN(C(=O)c2ncc(S(N)(=O)=O)cc2F)C3)n1 = 3.8
NS(=O)(=O)c1ccc(C(=O)N2CC3=C(CN(C(=O)c4cc(OCC5CCOCC5)nc(C5CC5)c4)C3)C2)nc1 = 18

Now for the compound whose IC50 we want.
In: State measured IC50 of the compound CC(C)(C)C(=O)Nc1cc(C(F)(F)F)cnc1COC(=O)N1CC2=C(C1)CN(C(=O)c1ccc(S(N)(=O)=O)cc1)C2 with UniProt:P00918.
Out: 14

* * *

# test_system: human ATX (Homo sapiens (Human))
# protocol_details: Human ATX enzyme inhibition assay (fluorescence quenching, MR121 substrate)
# Format: biochemical
# cond: human His-tagged ATX 30 nM, MR121 substrate 1 μM, 30° C.; read-out: ATX IC50
Exercise: state measured pIC50 for each of the compounds provided.
One number for each entry, as −log10 of the molar value.

CC(C)(C)C(=O)Nc1cc(Cl)cnc1COC(=O)N1CC2=C(C1)CN(C(=O)c1ccc(S(N)(=O)=O)c(F)c1)C2 = 8.70
CC(C)(C)C(=O)Nc1ccc(Cl)nc1COC(=O)N1CC2=C(C1)CN(C(=O)c1ccc(S(N)(=O)=O)c(F)c1F)C2 = 8.22
Cc1nnn(Cc2cc(C(F)(F)F)ccc2CCC(=O)N2CC3=C(C2)CN(C(=O)c2ncc(S(N)(=O)=O)cc2F)C3)n1 = 8.00

Please state pIC50 for every compound in the list that follows.
1. CC(C)(C)C(=O)Nc1cc(Cl)cnc1COC(=O)N1CC2=C(C1)CN(C(=O)c1ccc(S(N)(=O)=O)c(F)c1F)C2
2. CC(C)(C)C(=O)Nc1cc(C(F)(F)F)cnc1COC(=O)N1CC2=C(C1)CN(C(=O)c1ccc(S(N)(=O)=O)c(Cl)c1)C2
3. CC(C)(C)C(=O)Nc1cc(C(F)(F)F)cnc1COC(=O)N1CCC2=C(CCN(C(=O)c3ccc(S(N)(=O)=O)cc3F)C2)C1

Out:
1: 7.82; 2: 8.30; 3: 9.00

Please state pIC50 for every compound in the list that follows.
1. CC(C)(C)C(=O)Nc1cc(C(F)(F)F)cnc1COC(=O)N1CC2=C(C1)CN(C(=O)c1ccc(S(N)(=O)=O)cc1F)C2
2. CC(C)(C)C(=O)Nc1cc(C(F)(F)F)cnc1COC(=O)N1CC2=C(C1)CN(C(=O)c1ccc(S(N)(=O)=O)c(F)c1)C2
3. CC(C)(C)C(=O)Nc1cc(Cl)cnc1COC(=O)N1CC2=C(C1)CN(C(=O)c1c(F)cc(S(N)(=O)=O)cc1F)C2

Out:
[8.40, 8.30, 8.10]

* * *

Exercise: state measured log10(IC50) for each of the molecules provided.
# test_system: human ATX (Homo sapiens (Human))
# protocol_details: Human ATX enzyme inhibition assay (fluorescence quenching, MR121 substrate)
# Assay type: biochemical
Could you please treat all values as log10 of IC50 in nM?

Record excerpt, results attached:
CN1CCC(COc2cc(C(=O)N3CC4=C(C3)CN(C(=O)c3ccc(S(N)(=O)=O)c(F)c3F)C4)cc(C3CC3)n2)CC1 = 1.08
NS(=O)(=O)c1ccc(C(=O)N2CC3=C(CN(C(=O)OCc4ccc(OC(F)(F)F)cc4)C3)C2)nc1 = 0.48
Cc1cnn(Cc2cc(C(F)(F)F)ccc2CCC(=O)N2CC3=C(C2)CN(C(=O)c2ccc(S(N)(=O)=O)cc2F)C3)n1 = 0.00
CC(C)(C)C(=O)Nc1cc(Cl)c(Cl)nc1COC(=O)N1CC2=C(C1)CN(C(=O)c1ccc(S(N)(=O)=O)cc1F)C2 = 1.04
NS(=O)(=O)c1ccc(C(=O)N2CC3=C(CN(C(=O)c4cc(OCC5CCOCC5)nc(C5CC5)c4)C3)C2)c(F)c1F = 0.00
NS(=O)(=O)c1ccc(C(=O)N2CC3=C(CN(C(=O)CCc4ccc(OC(F)(F)F)cc4)C3)C2)c(F)c1 = 0.78

In: Output measured log10(IC50) for this item: CC(C)(C)C(=O)Nc1cc(C#N)c(Cl)cc1COC(=O)N1CC2=C(C1)CN(C(=O)c1ccc(S(N)(=O)=O)cn1)C2
Out: 0.00

* * *

Exercise: state measured IC50 for each of the molecules provided.
# test_system: Human carbonic anhydrase II (hCA-II) (Homo sapiens (Human))
# protocol_details: Human carbonic anhydrase-II inhibition assay (absorbance, 4-nitrophenyl acetate substrate)
# Format: biochemical
# cond: hCA II 8 nM, 4-NPA 2.5 mM, absorbance 340 nm, room temperature 1 hour; read-out: CA-II IC50
Answers are plain numbers, in nM.

Please state IC50 for every molecule in the list that follows.
1. CC(C)(C)C(=O)Nc1cc(C(F)(F)F)cnc1COC(=O)N1CC2=C(C1)CN(C(=O)c1ccc(S(N)(=O)=O)c(Cl)c1)C2 [Example 1.02]
2. Cc1nnn(Cc2cc(C(F)(F)F)ccc2CCC(=O)N2CC3=C(C2)CN(C(=O)c2ccc(S(N)(=O)=O)cc2F)C3)n1 [Example 1.10]
3. CC(C)(C)C(=O)Nc1cc(Cl)cnc1COC(=O)N1CC2=C(C1)CN(C(=O)c1c(F)cc(S(N)(=O)=O)cc1F)C2 [Example 1.15]

Out:
10
19
12.9

* * *

# test_system: human ATX (Homo sapiens (Human), UniProt Q13822)
# protocol_details: Human ATX enzyme inhibition assay (fluorescence quenching, MR121 substrate)
# Type: biochemical
# cond: human His-tagged ATX 30 nM, MR121 substrate 1 μM, 30° C.; read-out: ATX IC50
Exercise: state measured IC50 for each of the compounds provided.
Numbers only, in nM.

Record excerpt, results attached:
CC(C)(C)C(=O)Nc1cc(C(F)(F)F)cnc1COC(=O)N1CC2=C(C1)CN(C(=O)c1ccc(S(N)(=O)=O)cn1)C2 [Example 1.05] = 7
CC(C)(C)C(=O)Nc1cc2ccccc2nc1COC(=O)N1CC2=C(C1)CN(C(=O)c1ccc(S(N)(=O)=O)cc1F)C2 [Example 4.01] = 3

In: Output measured IC50 for this item: CC(C)(C)C(=O)Nc1cc(Cl)cnc1COC(=O)N1CC2=C(C1)CN(C(=O)c1cc(F)c(S(N)(=O)=O)cc1F)C2 [Example 1.16]
Out: 9

* * *

# test_system: human ATX (Homo sapiens (Human), UniProt Q13822)
# protocol_details: Human ATX enzyme inhibition assay (fluorescence quenching, MR121 substrate)
# Type: biochemical
// returns no unless IC50 is strictly below 10 nM, in which case yes

Reference set (2 entries):
NS(=O)(=O)c1ccc(C(=O)N2CCC3=C(CCN(C(=O)OCc4ccc(OC(F)(F)F)cc4)C3)C2)c(F)c1 = no
Cc1nnn(Cc2cc(C(F)(F)F)cnc2CCC(=O)N2CC3=C(C2)CN(C(=O)c2ccc(S(N)(=O)=O)cc2F)C3)n1 = yes

In: Quick check: IC50 of NS(=O)(=O)c1ccc(C(=O)N2CC3=C(CN(C(=O)OCc4ccc(OC(F)(F)F)cc4)C3)C2)cc1 under 10 nM?
Out: yes

In: Quick check: IC50 of Cc1nnn(Cc2cc(Cl)ccc2CCC(=O)N2CC3=C(C2)CN(C(=O)c2ccc(S(N)(=O)=O)cc2F)C3)n1 under 10 nM?
Out: yes

In: Quick check: IC50 of Cc1nnn(Cc2cc(Cl)cnc2COC(=O)N2CC3=C(C2)CN(C(=O)c2ccc(S(N)(=O)=O)cc2F)C3)n1 under 10 nM?
Out: no

In: Quick check: IC50 of CC(C)(C)C(=O)Nc1cc(C(F)(F)F)cnc1COC(=O)N1CC2=C(C1)CN(C(=O)c1ncc(S(N)(=O)=O)cc1F)C2 under 10 nM?
Out: yes

* * *

# test_system: Human carbonic anhydrase II (hCA-II) (Homo sapiens (Human))
# protocol_details: Human carbonic anhydrase-II inhibition assay (absorbance, 4-nitrophenyl acetate substrate)
# Assay type: biochemical
// returns not met unless IC50 is strictly below 5 nM, in which case met

Reference set (5 entries):
CC(C)(C)C(=O)Nc1cc(C#N)c(Cl)cc1COC(=O)N1CC2=C(C1)CN(C(=O)c1ccc(S(N)(=O)=O)cn1)C2 [Example 2.00] = not met
CC(C)(C)C(=O)Nc1cc(Cl)c(Cl)nc1COC(=O)N1CC2=C(C1)CN(C(=O)c1ccc(S(N)(=O)=O)cc1F)C2 [Example 1.29] = met
Cc1nnn(Cc2cc(Cl)cnc2COC(=O)N2CC3=C(C2)CN(C(=O)c2ccc(S(N)(=O)=O)cc2F)C3)n1 [Example 2.04] = met
Cc1cnn(Cc2cc(C(F)(F)F)ccc2CCC(=O)N2CC3=C(C2)CN(C(=O)c2ccc(S(N)(=O)=O)cc2F)C3)n1 [Example 3.08] = not met
NS(=O)(=O)c1ccc(C(=O)N2CC3=C(CN(C(=O)OCc4ccc(OC(F)(F)F)cc4)C3)C2)cc1 [Example 1.06] = not met

Then there is this compound:
In: Quick check: IC50 of NS(=O)(=O)c1ccc(C(=O)N2CC3=C(CN(C(=O)OCc4ccc(OC(F)(F)F)cc4)C3)C2)nc1 [Example 2.02] under 5 nM?
Out: not met
